Biological target: UniProt P10275
Sequence (P10275 1-920): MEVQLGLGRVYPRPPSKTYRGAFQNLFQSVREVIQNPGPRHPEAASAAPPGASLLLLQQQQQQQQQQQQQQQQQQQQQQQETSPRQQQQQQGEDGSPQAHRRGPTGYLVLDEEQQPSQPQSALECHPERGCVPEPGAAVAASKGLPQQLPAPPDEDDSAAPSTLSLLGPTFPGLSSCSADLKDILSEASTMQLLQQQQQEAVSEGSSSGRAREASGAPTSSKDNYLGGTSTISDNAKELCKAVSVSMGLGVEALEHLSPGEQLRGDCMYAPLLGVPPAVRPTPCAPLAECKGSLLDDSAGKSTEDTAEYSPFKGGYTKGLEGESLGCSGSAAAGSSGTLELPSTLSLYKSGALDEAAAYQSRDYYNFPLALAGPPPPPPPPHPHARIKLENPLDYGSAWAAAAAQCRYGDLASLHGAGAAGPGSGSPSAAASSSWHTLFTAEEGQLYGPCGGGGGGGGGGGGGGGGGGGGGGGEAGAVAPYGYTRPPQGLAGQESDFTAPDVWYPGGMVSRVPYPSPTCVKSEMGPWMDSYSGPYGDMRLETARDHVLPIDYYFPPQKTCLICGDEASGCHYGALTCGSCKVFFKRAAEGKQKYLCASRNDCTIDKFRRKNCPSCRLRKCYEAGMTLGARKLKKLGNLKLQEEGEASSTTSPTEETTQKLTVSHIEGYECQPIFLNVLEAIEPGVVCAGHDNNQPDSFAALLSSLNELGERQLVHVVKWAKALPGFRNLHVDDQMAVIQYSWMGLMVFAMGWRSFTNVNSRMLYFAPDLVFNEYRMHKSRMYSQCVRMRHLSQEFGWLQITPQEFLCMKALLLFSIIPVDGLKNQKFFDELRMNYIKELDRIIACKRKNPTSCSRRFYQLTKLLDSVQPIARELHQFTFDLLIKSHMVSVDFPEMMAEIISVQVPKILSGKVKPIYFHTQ
Assay: Co-transfection assay, AR antagonist activity (CV-1 cells, in presence of DHT)
Assay type: cell-based
Conditions: read-out: AR Antagonist CV-1 Cells Potency
EXPERIMENTAL_ENDPOINT: IC50 (nM)
Numbers only, in nM.

[[record]]
mol_smiles = "O=c1cc(C(F)(F)F)c2cc(-c3cccc(F)c3)ccc2[nH]1"
test_target = "UniProt P10275"
measured = 27

[[record]]
mol_smiles = "O=C1C=C(c2ccc3[nH]c(=O)cc(C(F)(F)F)c3c2)CCC1"
test_target = "UniProt P10275"
measured = 70

[[record]]
mol_smiles = "O=c1cc(C(F)(F)F)c2cc(-c3ccccc3)ccc2[nH]1"
test_target = "UniProt P10275"
measured = 30


Any idea what IC50 was measured for "O=C(Nc1ccc2c(C(F)(F)F)cc(=O)[nH]c2c1)C(F)(F)F" ?
26
